// endpoint pIC50 / system thrombin (Homo sapiens)
// pIC50: -log10(molar conc.)

Check out these entries, answers already filled in.
>>> test_result("COC(=O)C(Cc1cccc(C(=N)N)c1)N1CCc2cc(OC3CCN(C(=N)N)CC3)ccc2C1=O (stereo not shown)")
3.40
>>> test_result("COC(=O)C(Cc1ccc2ccc(C(=N)N)cc2c1)N1CCc2cc(OC3CCN(C(=N)N)CC3)ccc2C1=O (stereo not shown)")
3.64
>>> test_result("CC(=N)N1CCC(Oc2ccc3c(c2)CCN(C(Cc2ccc4ccc(C(=N)N)cc4c2)C(=O)OC(C)(C)C)C3=O)CC1 (stereo not shown)")
3.92

For the compound CC(=N)N1CCC(Oc2ccc3c(c2)CCN(C(Cc2cccc(C(=N)N)c2)C(=O)OC(C)(C)C)C3=O)CC1 (stereo not shown) , report pIC50.
3.82

---

// endpoint pIC50 / system factor Xa (Homo sapiens)
// pIC50: -log10(molar conc.)

Check out these entries, answers already filled in.
>>> test_result("COC(=O)C(Cc1cccc(C(=N)N)c1)N1CCc2cc(OC3CCN(C(=N)N)CC3)ccc2C1=O (centres unmarked)")
6.82
>>> test_result("COC(=O)C(Cc1cccc(C(=N)N)c1)N1CCc2cc(OC3CCN(C(C)=N)CC3)ccc2C1=O (centres unmarked)")
6.89

Enter pIC50 (test system factor Xa (Homo sapiens)) for CC(C)(C)OC(=O)C(Cc1ccc2ccc(C(=N)N)cc2c1)N1CCc2cc(OC3CCN(C(=N)N)CC3)ccc2C1=O (centres unmarked)
6.77

Enter pIC50 (test system factor Xa (Homo sapiens)) for CC(=N)N1CCC(Oc2ccc3c(c2)CCN(C(Cc2cccc(C(=N)N)c2)C(=O)O)C3=O)CC1 (centres unmarked)
6.09

Enter pIC50 (test system factor Xa (Homo sapiens)) for CC(=N)N1CCC(Oc2ccc3c(c2)CCN(C(Cc2ccc4ccc(C(=N)N)cc4c2)C(=O)O)C3=O)CC1 (centres unmarked)
6.46
